Biological target: Ephrin type-A receptor 5 (Homo sapiens)
Sequence (P54756 whole entry): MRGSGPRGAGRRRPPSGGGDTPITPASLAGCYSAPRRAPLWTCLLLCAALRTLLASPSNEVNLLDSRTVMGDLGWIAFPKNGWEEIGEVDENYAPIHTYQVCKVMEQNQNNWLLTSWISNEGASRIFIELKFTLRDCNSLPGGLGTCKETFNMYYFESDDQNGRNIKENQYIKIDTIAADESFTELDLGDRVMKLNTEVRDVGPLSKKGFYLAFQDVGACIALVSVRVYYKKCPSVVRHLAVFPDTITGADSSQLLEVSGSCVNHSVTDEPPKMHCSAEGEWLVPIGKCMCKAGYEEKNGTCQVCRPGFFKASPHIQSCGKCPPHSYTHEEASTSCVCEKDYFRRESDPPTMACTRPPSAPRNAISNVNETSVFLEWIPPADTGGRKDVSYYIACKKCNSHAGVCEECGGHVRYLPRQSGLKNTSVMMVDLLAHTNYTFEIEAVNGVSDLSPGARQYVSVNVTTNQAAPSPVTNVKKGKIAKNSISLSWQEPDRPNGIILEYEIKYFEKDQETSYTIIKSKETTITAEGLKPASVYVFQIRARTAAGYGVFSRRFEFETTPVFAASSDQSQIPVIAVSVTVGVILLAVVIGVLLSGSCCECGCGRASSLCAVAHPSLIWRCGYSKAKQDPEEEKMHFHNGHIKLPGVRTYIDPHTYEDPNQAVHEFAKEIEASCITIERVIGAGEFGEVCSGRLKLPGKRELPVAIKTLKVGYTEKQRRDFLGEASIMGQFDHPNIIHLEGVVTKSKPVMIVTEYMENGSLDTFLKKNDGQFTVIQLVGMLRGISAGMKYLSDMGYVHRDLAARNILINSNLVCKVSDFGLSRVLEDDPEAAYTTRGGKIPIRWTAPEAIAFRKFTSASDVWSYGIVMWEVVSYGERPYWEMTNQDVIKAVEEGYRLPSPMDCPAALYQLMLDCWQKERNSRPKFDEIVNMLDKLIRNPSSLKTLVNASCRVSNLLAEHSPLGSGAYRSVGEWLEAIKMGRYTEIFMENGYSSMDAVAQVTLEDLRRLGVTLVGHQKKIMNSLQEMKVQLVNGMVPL

# Smiles notation, IC50
data = [
    ("C[C@H](CCC(=O)N[C@@H](Cc1c[nH]c2ccccc12)C(=O)O)[C@H]1CC[C@H]2[C@@H]3CC[C@@H]4C[C@H](O)CC[C@]4(C)[C@H]3CC[C@]12C", "2400 nM"),
]

* * *

Molecular target: Ephrin type-A receptor 7 (Homo sapiens, UniProt Q15375)
Sequence (Q15375 whole entry): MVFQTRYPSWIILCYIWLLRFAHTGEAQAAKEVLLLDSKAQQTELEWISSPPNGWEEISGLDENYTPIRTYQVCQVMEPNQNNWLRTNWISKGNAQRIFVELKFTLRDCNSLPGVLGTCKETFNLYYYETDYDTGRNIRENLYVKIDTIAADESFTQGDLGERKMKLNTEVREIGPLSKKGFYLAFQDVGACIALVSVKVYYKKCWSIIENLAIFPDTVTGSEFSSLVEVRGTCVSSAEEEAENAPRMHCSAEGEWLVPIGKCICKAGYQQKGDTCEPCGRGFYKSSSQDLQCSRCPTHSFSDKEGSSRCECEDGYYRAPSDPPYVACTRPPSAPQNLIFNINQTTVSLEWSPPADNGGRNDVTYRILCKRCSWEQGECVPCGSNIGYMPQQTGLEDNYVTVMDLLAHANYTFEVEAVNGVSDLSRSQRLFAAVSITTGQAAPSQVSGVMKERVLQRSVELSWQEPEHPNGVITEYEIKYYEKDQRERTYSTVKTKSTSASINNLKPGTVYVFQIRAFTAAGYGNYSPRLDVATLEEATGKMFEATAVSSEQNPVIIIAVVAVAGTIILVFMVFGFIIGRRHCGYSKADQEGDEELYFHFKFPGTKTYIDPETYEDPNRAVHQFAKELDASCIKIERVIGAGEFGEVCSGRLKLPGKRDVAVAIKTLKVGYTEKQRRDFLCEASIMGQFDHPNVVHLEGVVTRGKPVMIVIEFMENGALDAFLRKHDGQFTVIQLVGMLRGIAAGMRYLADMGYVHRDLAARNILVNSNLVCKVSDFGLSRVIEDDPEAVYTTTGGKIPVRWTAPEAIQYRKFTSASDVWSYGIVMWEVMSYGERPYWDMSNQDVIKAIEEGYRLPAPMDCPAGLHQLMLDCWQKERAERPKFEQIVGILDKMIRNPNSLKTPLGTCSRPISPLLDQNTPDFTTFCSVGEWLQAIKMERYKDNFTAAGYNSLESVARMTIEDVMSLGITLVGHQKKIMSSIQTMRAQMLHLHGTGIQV

# Smiles notation, IC50 (nM)
data = [
    ("C[C@H](CCC(=O)N[C@@H](Cc1c[nH]c2ccccc12)C(=O)O)[C@H]1CC[C@H]2[C@@H]3CC[C@@H]4C[C@H](O)CC[C@]4(C)[C@H]3CC[C@]12C", 2100),
]

Reference for the values: ChEMBL document CHEMBL2321799
